assay: gradient 5% acetonitrile 3 min, to 50% in 2 min, to 85% in 15 min, held 3 min, 100 µL/min; conditions: column: Zorbax Extend-C18 2.1 x 50 mm; eluents: water / acetonitrile, 0.1% formic acid
Measured RP-LC retention time, listed per entry for reference.
Number in s, nothing else.

Some compounds with known RP-LC retention time results, for comparison:
[[record]]
compound = "CCc1ccc(-c2cc3c(=O)n(Cc4noc(CN5CCC(C)CC5)n4)ccn3n2)cc1"
result_units = "s"
observed_value = 757

[[record]]
compound = "N#Cc1ccc(C(=O)Nc2ccc(-c3nnc4n3CCCC4)cc2)cc1"
result_units = "s"
observed_value = 643


Field request: RP-LC retention time | item: CCOc1ccccc1N1CCN(S(=O)(=O)c2nn(C)cc2C(=O)NCCCOC)CC1
847

Data request, read-out RP-LC retention time, for Cc1cc2c(c(=O)n(-c3ccc(F)cc3)c(=O)n2CC(=O)Nc2cc(F)ccc2F)n1C
875

# query: RP-LC retention time of entry CCCCNC(=O)Cn1nc(C)c2nn(-c3ccc(Cl)cc3)c(-n3cccc3)c2c1=O
1020

# input compound: CCOc1ccc(-c2cn3ccn(-c4ccc(C)cc4C)c(=O)c3n2)cc1 ; wanted: its RP-LC retention time
921

Which RP-LC retention time reading was recorded for the compound CN(CCCNC(=O)CN1C(=O)CCn2nc(-c3cn(C)c4ccccc34)cc21)Cc1ccccc1 ?
645

* * *

test: gradient 5% acetonitrile 3 min, to 50% in 2 min, to 85% in 15 min, held 3 min, 100 µL/min; details: column: Zorbax Extend-C18 2.1 x 50 mm; eluents: water / acetonitrile, 0.1% formic acid
test_readout: RP-LC retention time (s)
Give the value, in units of s, as a plain number.

Here is how some molecules turned out for RP-LC retention time.
[[record]]
molecule = "O=C1NCCCn2cc(S(=O)(=O)Nc3ccc(Cl)cc3)cc21"
test_readout = "RP-LC retention time"
observed_value = 682

[[record]]
molecule = "CN1CCC(NC(=O)C2CCc3sc(C(=O)N4CCCCC4)cc3C2)CC1 (centres undefined)"
test_readout = "RP-LC retention time"
observed_value = 587

[[record]]
molecule = "COc1ccc(C2=NN(S(C)(=O)=O)C(c3ccc4nccnc4c3)C2)c(F)c1 (centres undefined)"
test_readout = "RP-LC retention time"
observed_value = 740

[[record]]
molecule = "Cc1ccccc1OCc1nc(-c2ccc3ncn(C(C)C)c3c2)no1"
test_readout = "RP-LC retention time"
observed_value = 839

[[record]]
molecule = "O=C(O)c1cc2nc(-c3ccc(Cl)cc3)cc(C(F)(F)F)n2n1"
test_readout = "RP-LC retention time"
observed_value = 927

[[record]]
molecule = "CN1CCCc2cc(C(CNC(=O)C(=O)NCc3ccc4c(c3)OCO4)N3CCCC3)ccc21 (centres undefined)"
test_readout = "RP-LC retention time"
observed_value = 709


Which value of RP-LC retention time has been reported for CCOC(=O)N1CCN(C(=O)CCC2CCN(c3cc(NC4CC4)ncn3)CC2)CC1 in the records?
561

May I ask what RP-LC retention time has been recorded for COCCNC(=O)C(C)Sc1ccc(=O)n(-c2ccc(C)c(Cl)c2)n1 (centres undefined) ?
731

Name the reported RP-LC retention time value associated with the molecule NC(=O)C1CCN(C2CC(=O)N(c3ccc(Oc4ccccc4)cc3)C2=O)CC1 (centres undefined)
662
